- Tested on: COLO 205
- protocolNotes: Growth inhibition of Homo sapiens (human) COLO205 cells at 100 uM by SRB assay
- Assay type: functional
- measurementConditions: read-out: GI
// reported inhibition of growth at 100 µM for each item listed
quantity: inhibition of growth at 100 µM (%)

COc1cc(C2CC(c3ccccc3)=NN2C(C)=O)ccc1OCc1cn(Cc2ccc([N+](=O)[O-])cc2)nn1 (stereo unspecified) : 11
COc1cc(C2CC(c3cc(OC)c(OC)c(OC)c3)=NN2C(C)=O)ccc1OCc1cn(Cc2ccc([N+](=O)[O-])cc2)nn1 (stereo unspecified) : 99
COc1ccc(C2CC(c3ccc(OCc4cn(Cc5ccc([N+](=O)[O-])cc5)nn4)cc3)=NN2C(C)=O)cc1OC (stereo unspecified) : 38
COc1cc(C2CC(c3ccc(Br)cc3)=NN2C(C)=O)ccc1OCc1cn(Cc2ccc([N+](=O)[O-])cc2)nn1 (stereo unspecified) : 47
COc1ccc(C2CC(c3ccc(OCc4cn(Cc5ccc([N+](=O)[O-])cc5)nn4)cc3)=NN2C(C)=O)cc1 (stereo unspecified) : 37
COc1cc(C2CC(c3ccc([N+](=O)[O-])cc3)=NN2C(C)=O)ccc1OCc1cn(Cc2ccc([N+](=O)[O-])cc2)nn1 (stereo unspecified) : 85
CC(=O)N1N=C(c2ccc(OCc3cn(Cc4ccc([N+](=O)[O-])cc4)nn3)cc2)CC1c1ccccc1 (stereo unspecified) : 55
COc1ccc(C2=NN(C(C)=O)C(c3ccc(OCc4cn(Cc5ccc([N+](=O)[O-])cc5)nn4)c(OC)c3)C2)cc1 (stereo unspecified) : 75
COc1cc(C2CC(c3cccc4ccccc34)=NN2C(C)=O)ccc1OCc1cn(Cc2ccc([N+](=O)[O-])cc2)nn1 (stereo unspecified) : 72
COc1cc(C2CC(c3ccc(Cl)cc3)=NN2C(C)=O)ccc1OCc1cn(Cc2ccc([N+](=O)[O-])cc2)nn1 (stereo unspecified) : 10
COc1cc(C2CC(c3ccc(OCc4cn(Cc5ccc([N+](=O)[O-])cc5)nn4)cc3)=NN2C(C)=O)ccc1OCc1cn(Cc2ccc([N+](=O)[O-])cc2)nn1 (stereo unspecified) : 51
